Every entry's value here was drawn from PubChem BioAssay (NCI).

Listing of entries alongside the reported GI50.
Test system: NCI-H460 lung

STRUCTURE AS SMILES: COc1ccc(C(=O)Cn2c(C(=O)c3ccc(OC)cc3)nc3ccccc32)cc1
GI50: 3.73 µM
--
STRUCTURE AS SMILES: CC(C)(C)[OH+][O-].[O-]c1ccc(Cl)cc1C=Nc1ccc(Cl)cc1[O-].[O]=[V]
GI50: 18 µM
--
STRUCTURE AS SMILES: Cn1ccnc1C(=O)/C=C/c1ccc(CC(=O)Nc2ccc(Cl)cc2)cc1
GI50: 1.58 µM
--
STRUCTURE AS SMILES: CN(C)CCNC(=O)c1ccc(Nc2nc3ccccc3c3occc23)cc1
GI50: 28.5 µM
--
STRUCTURE AS SMILES: Cc1ccc(Nc2nc(NCCO)c3ccccc3n2)cc1C
GI50: 4.44 µM
--
STRUCTURE AS SMILES: COc1ccc(C(=O)Cn2c(C(=O)c3ccc(Cl)cc3)nc3ccccc32)cc1
GI50: 25.2 µM

* * *

TGI listing for selected compounds.
System: CCRF-CEM leukemia
Assay: NCI tumour cell line growth inhibition, 48 h
Where a SMILES comes first, the peptide text is derived from it.

COMPOUND: CN(C)CCCCN1CCc2c(n(C)c3ccccc23)C1=O
TGI: > 100 µM

COMPOUND: CCN(CC)c1ccc(/C=C(\C#N)c2nc(N)nc(N3N=C(C)CC3(C)C)n2)cc1
TGI: > 100 µM

COMPOUND: COC(=O)c1ccccc1C1CN=NC12Cc1ccc3ccccc3c1C2=O (stereo not given)
TGI: > 100 µM

COMPOUND: COc1ccc(C(=O)/C=C/c2ccc(O)c(O)c2F)c(OC)c1
TGI: 6.5 µM

COMPOUND: CC1NC(=O)CNC(=O)CNC(=O)C(Cc2ccc(O)cc2)NC(=O)C(C(C)C)NC(=O)C(C)NC1=O (stereo not given) (cyclo(GGAAVY); configuration not given here)
TGI: > 100 µM

COMPOUND: Cc1ccc(Nc2nc(NCCO)c3ccccc3n2)cc1C
TGI: 18.6 µM

COMPOUND: c1ccc2c(c1)ccc1nc(-c3ccc4c(c3)OCO4)c3c(c12)CCCC3
TGI: > 100 µM

COMPOUND: O=C(NN=C1CCN(Cc2ccccc2)CC1)C(O)(c1ccccc1)c1ccccc1
TGI: > 100 µM

COMPOUND: O=C1NC(=O)C(C(=O)C(=O)Nc2ccc(Br)cc2)C(=O)N1
TGI: > 100 µM

COMPOUND: O=C(Nc1ccc(S(=O)(=O)Nc2nccs2)cc1)c1cccnc1Nc1cccc(Cl)c1
TGI: > 100 µM

COMPOUND: CNc1ncnc(Sc2nc(N)nc3nc[nH]c23)c1[N+](=O)[O-]
TGI: 0.892 µM

COMPOUND: Cc1ccc(-c2c(C#N)c(-c3ccc(Cl)cc3)c(C#N)c(=O)n2NS(=O)(=O)c2ccccc2)cc1
TGI: > 100 µM

COMPOUND: S=c1ssc2c3ssc(=S)c3n(Cc3ccccc3)c12
TGI: 58.2 µM

COMPOUND: CC(O)C1OC(O)C2OC(C)(C)OC12 (stereo not given)
TGI: > 100 µM

COMPOUND: CCCCCCCCCCCCN1C(C)=CS/C1=C\C=C\c1scc(C)[n+]1CCCCCCCCCCCC
TGI: > 100 µM

COMPOUND: O=C(CCN1CCN(c2cccc(Cl)c2)CC1)N1CCc2c([nH]c3ccccc23)C1c1cccnc1 (stereo not given)
TGI: > 100 µM

COMPOUND: CC(=O)N(C)OC(=O)CC(=O)c1ccccc1
TGI: > 100 µM

COMPOUND: O=C1/C(=C/c2cccc([N+](=O)[O-])c2)COc2ccc(O)c(O)c21
TGI: 2.43 µM

COMPOUND: O=P(c1ccccc1)(c1ccccc1)C1CC=C(c2ccccc2)C2(CCCC2)C1 (stereo not given)
TGI: > 100 µM

COMPOUND: Cc1ccc(S(=O)(=O)N/N=C(\CCN2CCCC2)CC(c2ccccc2)c2c(O)c3ccccc3oc2=O)cc1 (stereo not given)
TGI: > 100 µM

* * *

Test system: CAKI-1 renal
Assay: NCI tumour cell line growth inhibition, 48 h
OBSERVATION TYPE: TGI (µM)

COMPOUND: CCN(CC)c1ccc(/C=C(\C#N)c2nc(N)nc(N3N=C(C)CC3(C)C)n2)cc1
LIMIT OPERATOR: =
RESULT VALUE: 28.4
--
COMPOUND: Cc1cc2nc3n[nH]c(N)c3nc2cc1C
LIMIT OPERATOR: >
RESULT VALUE: 100
--
COMPOUND: Cc1ccc(/C=C2\CN(C)CC3=C2OC(N)=C(C#N)C3c2ccc(C)cc2)cc1 (stereo not given)
LIMIT OPERATOR: =
RESULT VALUE: 74.6
--
COMPOUND: Cn1cc(C(=O)c2nccc3c2cnc2ccccc23)ccc1=O
LIMIT OPERATOR: >
RESULT VALUE: 100
--
COMPOUND: CC(C)(C)OC(=O)[N+](=N)C(=O)C1CCC(=O)N1C(=O)OCc1ccccc1 (stereo not given)
LIMIT OPERATOR: >
RESULT VALUE: 100

* * *

System: M14 melanoma
Assay: NCI tumour cell line growth inhibition, 48 h; in the data active = GI50 below about 0.43 µM; inactive = the rest
Labels: yes (1) (active), no (0) (inactive)

MOLECULE: N#CC1=C(N)Oc2cc3c(cc2C1c1cccs1)OCO3 (configuration not stated)
CLASS ASSIGNMENT: yes (1)
--
MOLECULE: CCCCCCCCCCCCN1C(C)=CS/C1=C\C=C\c1scc(C)[n+]1CCCCCCCCCCCC
CLASS ASSIGNMENT: no (0)
--
MOLECULE: Nc1c(C(=O)Nc2ccccc2)sc2nc3c(cc12)CCCCCC3
CLASS ASSIGNMENT: yes (1)
--
MOLECULE: COc1cccc(-c2nn(-c3ccccc3)cc2-c2ccnc(NCCNS(=O)(=O)c3ccc(Cl)cc3)c2)c1
CLASS ASSIGNMENT: no (0)
--
MOLECULE: O=[N+]([O-])c1cnc(Sc2ccncn2)c([N+](=O)[O-])c1
CLASS ASSIGNMENT: no (0)
--
MOLECULE: OCCN(CCO)N=Nc1ccc(-c2nc3ccccc3[nH]2)cc1
CLASS ASSIGNMENT: no (0)
--
MOLECULE: CCNC(=O)C[C@@H]1N=C(c2ccc(Cl)cc2)c2cc(OC)ccc2-n2c(C)nnc21
CLASS ASSIGNMENT: no (0)
--
MOLECULE: CNc1ccccc1C(=O)N/N=C/C=C/c1ccccc1
CLASS ASSIGNMENT: no (0)
--
MOLECULE: O=C(Nc1ccc(S(=O)(=O)Nc2nccs2)cc1)c1cccnc1Nc1cccc(Cl)c1
CLASS ASSIGNMENT: no (0)
--
MOLECULE: CCC/C(=N\NC(=S)N1CCN(c2ccccn2)CC1)c1ccccn1
CLASS ASSIGNMENT: yes (1)
--
MOLECULE: CN(C)CCNC(=O)c1ccc(Nc2nc3ccccc3c3occc23)cc1
CLASS ASSIGNMENT: no (0)
--
MOLECULE: O=C1/C(=C/c2cccc([N+](=O)[O-])c2)COc2ccc(O)c(O)c21
CLASS ASSIGNMENT: no (0)

* * *

Test system: MALME-3M melanoma
Test: NCI tumour cell line growth inhibition, 48 h
OBSERVATION TYPE: GI50

COMPOUND: O=C(CCN1CCN(c2cccc(Cl)c2)CC1)N1CCc2c([nH]c3ccccc23)C1c1cccnc1 (stereo not given)
OBSERVATION TYPE: GI50
RESULT VALUE: 14.9 µM
--
COMPOUND: COc1ccc(C(=O)/C=C/c2ccc(O)c(O)c2F)c(OC)c1
OBSERVATION TYPE: GI50
RESULT VALUE: 12 µM
--
COMPOUND: Oc1ccc(C(c2ccccc2)(c2ccccc2)c2ccccc2)cc1
OBSERVATION TYPE: GI50
RESULT VALUE: 27.2 µM
--
COMPOUND: CC(C)(C)[OH+][O-].[O-]c1ccc(Cl)cc1C=Nc1ccc(Cl)cc1[O-].[O]=[V]
OBSERVATION TYPE: GI50
RESULT VALUE: 1.81 µM
--
COMPOUND: O=C1c2ccccc2-c2c1c1ccccc1c(=O)n2CCCNCCCn1c2c(c3ccccc3c1=O)C(=O)c1ccccc1-2
OBSERVATION TYPE: GI50
RESULT VALUE: 12.6 µM

* * *

Each entry below carries its reported TGI.
Test system: EKVX NSCLC
Assay: NCI tumour cell line growth inhibition, 48 h

MOLECULE: Brc1cccc(/C=C/CN2CCN(CCOC(c3ccccc3)c3ccccc3)CC2)c1
TGI: 40.8 µM

MOLECULE: CN(C1=NCCO1)c1cccc2ccccc12
TGI: > 10 µM

MOLECULE: Cn1c(=O)oc2cc(C(=O)CSC(=S)N3CCCCCC3)ccc21
TGI: > 100 µM

MOLECULE: CC(=O)OCC1OC(On2ccccc2=S)C(OC(C)=O)C(OC(C)=O)C1OC(C)=O (stereo unspecified)
TGI: > 100 µM

MOLECULE: Cc1[nH]c2ncn3nc(C(Cl)(Cl)Cl)nc3c2c1Cc1ccccc1
TGI: > 100 µM

MOLECULE: COc1ccc2c(c1)C(N)CC2=O (stereo unspecified)
TGI: > 100 µM
